targetEntity: human c-Met receptor on tumor cells (A549, NCI-H441, BxPC3) (human, UniProt P08581 25-1390)
testName: cell-based or functional assay
Listed next: entries and their corresponding inhibition of HGF-induced proliferation of NCI-H441 cells (Figure 14B).
A number alone suffices; assume %.

| binder | resultUnits | measuredResult |
| --- | --- | --- |
| [224G11][MUP9H chim] (antibody, human IgG1, V domains shown) VH: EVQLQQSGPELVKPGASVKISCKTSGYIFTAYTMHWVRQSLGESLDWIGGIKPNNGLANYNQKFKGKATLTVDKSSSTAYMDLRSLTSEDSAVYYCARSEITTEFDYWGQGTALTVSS VL: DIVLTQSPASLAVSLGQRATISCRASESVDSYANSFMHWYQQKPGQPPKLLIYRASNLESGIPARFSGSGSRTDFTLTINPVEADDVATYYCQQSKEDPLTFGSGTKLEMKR | % | 78 |
| murine 224G11 Mab (antibody, mouse IgG1, V domains shown) VH: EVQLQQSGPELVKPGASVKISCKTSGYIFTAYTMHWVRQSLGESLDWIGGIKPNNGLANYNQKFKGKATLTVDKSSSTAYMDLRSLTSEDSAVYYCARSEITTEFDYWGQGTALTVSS VL: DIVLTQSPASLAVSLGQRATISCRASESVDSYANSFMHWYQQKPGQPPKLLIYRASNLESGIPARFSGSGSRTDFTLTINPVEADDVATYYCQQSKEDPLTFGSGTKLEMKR | % | 57 |

Please find the next binder below.
Query (binder): [224G11][MH chim] (antibody, human IgG1, V domains shown) VH: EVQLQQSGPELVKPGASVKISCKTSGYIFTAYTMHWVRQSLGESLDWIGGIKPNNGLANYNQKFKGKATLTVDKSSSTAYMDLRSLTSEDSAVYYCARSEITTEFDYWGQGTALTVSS VL: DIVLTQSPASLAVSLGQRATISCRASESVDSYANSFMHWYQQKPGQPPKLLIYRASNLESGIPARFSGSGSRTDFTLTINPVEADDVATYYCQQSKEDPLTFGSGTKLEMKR ; field requested: inhibition of HGF-induced proliferation of NCI-H441 cells (Figure 14B)
79
